Cited source for all entries: the Immune Epitope Database (IEDB)

Molecular target: HLA-A*02:01
Assay: IEDB peptide-MHC binding, purified MHC/competitive/fluorescence; filed as Kd, often an IC50 or EC50 that approximates it; bounds were set here for any values at or beyond the usual limits of such assays
Conditions: source organism: Variola virus
Measurement Kind: pKd
# pKd = -log10(concentration in molar units)

// pKd lookup, sequence = FVDTMSIYI , result: 9.40

---

Target: HLA-B*07:02
Assay: IEDB peptide-MHC binding, purified MHC/direct/fluorescence; filed as Kd, often an IC50 or EC50 that approximates it; bounds were set here for any values at or beyond the usual limits of such assays
Details: source organism: Francisella tularensis subsp. holarctica LVS
pKd: −log10 of the molar value.
Measurement Kind: pKd

FQVNRFTGY ... ≤ 4.70

// pKd lookup, sequence = IYTVIYYIF , result: ≤ 4.70

---

Form field: Kd (one value per entry).
Target: HLA-A*26:01
Assay: IEDB peptide-MHC binding, purified MHC/competitive/radioactivity; filed as Kd, often an IC50 or EC50 that approximates it; bounds were set here for any values at or beyond the usual limits of such assays
Details: source organism: SARS coronavirus Tor2
Expressed in µM, but write only the number.

LIDLQELGKY ... 1.02
QFLYLYALI ... 10.1
YQCGHYTHI ... 13.3

Now look at this entry.
// Kd lookup, sequence = CTLSEQLDY , result: 0.842

---

Molecular target: HLA-A*11:01
Experiment: IEDB peptide-MHC binding, purified MHC/competitive/fluorescence; filed as Kd, often an IC50 or EC50 that approximates it; bounds were set here for any values at or beyond the usual limits of such assays
Conditions: source organism: Encephalitozoon cuniculi GB-M1
Measurement Kind: pKd
# pKd = -log10(concentration in molar units)

// pKd lookup, sequence = CVNDGGLFY , result: 6.96

---

Biological target: HLA-A*31:01
Assay: IEDB peptide-MHC binding, purified MHC/competitive/radioactivity; filed as Kd, often an IC50 or EC50 that approximates it; bounds were set here for any values at or beyond the usual limits of such assays
Conditions: source organism: Mammarenavirus machupoense
Measurement Kind: pKd
# pKd = -log10(concentration in molar units)

// pKd lookup, sequence = CQFDHVNTLH , result: 5.71

---

Biological target: HLA-B*44:02
Experiment: IEDB peptide-MHC binding, purified MHC/direct/fluorescence; filed as Kd, often an IC50 or EC50 that approximates it; bounds were set here for any values at or beyond the usual limits of such assays
Conditions: source organism: Influenza A virus (A/goose/Hong Kong/8/1976(H1N1))
Measurement Kind: Kd

// Kd lookup, sequence = KTTYWWDGL , result: ≥ 20 µM

---

Target: HLA-A*11:01
Test: IEDB peptide-MHC binding, purified MHC/direct/fluorescence; filed as Kd, often an IC50 or EC50 that approximates it; bounds were set here for any values at or beyond the usual limits of such assays
Settings: source organism: Orthohantavirus seoulense
Measurement Kind: Kd

// Kd lookup, sequence = KPKHLYVSM , result: ≥ 20 µM

---

Target: HLA-B*44:02
Experiment: IEDB peptide-MHC binding, purified MHC/direct/fluorescence; filed as Kd, often an IC50 or EC50 that approximates it; bounds were set here for any values at or beyond the usual limits of such assays
Settings: source organism: Orthohantavirus seoulense
Measurement Kind: Kd

Record for KPKHLYVSM under target or system HLA-B*44:02: Kd reported as ≥ 20 µM
